composite z-score listing for selected compounds.
Assay: small-molecule binders of probe aNOTCH3, primary screen, biochemical, small-molecule microarray, 635/667 nm fluorescence (AID 1120);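 further: probe is a biotin-tagged antibody raised against NOTCH3 rather than NOTCH3 protein; score merges spot fluorescence near 667 nm with spot signal to noise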
Details: higher = more signal
measured attribute: composite z-score

> print(dat)
                                   compound  test.result
1  O=C1C=C[C@@H](O)[C@@H]2[C@@H]3C(=O)N(Cc4ccccc4)C(=O)[C@@H]3CC[C@@H]12         0.21
2  COc1ccc(O[C@H]2C=C[C@@H](c3ccccc3)O[C@@H]2COC(=O)CCC(C)=NOC[C@@H](O)COCc2ccco2)cc1       -0.919
3  CCc1cc2c(nc1CC)CCN(CCC(C)=NOCC[C@@H]1C=C[C@H](OC(C)=O)[C@@H](COC(C)=O)O1)C2        0.493
4  CC(=O)OC[C@H]1O[C@H](C#CCC2CCCCC2)C=C[C@@H]1OC(C)=O       -0.154
5  CO[C@@H](C(C)C)[C@@H](C)C1OC(=O)CC1O (some centres undefined)       -0.159
6  CON=C(C)CCN1CCc2nc(-c3ccccc3)c(-c3ccccc3)cc2C1       -0.132
7  CC(C)=NOC(C)CN1CCCc2nc(C)c(C)cc21 (centres undefined)       0.0482
8  CCOC(=O)NN=C1C[C@@H](O)[C@@H](O)[C@@H]2[C@@H]3C(=O)N(c4ccc(F)cc4F)C(=O)[C@@H]3CC[C@H]12      -0.0879
9  COC(=O)[C@H](C)NC(=O)CCC1CC(OC(=O)NCc2cccc3ccccc23)CC2(CCCC(COC(=O)NCCc3ccccc3OC)O2)O1 (some centres undefined)       0.0893
